MEASURED_TARGET: T1, truncated cTfR1 of SEQ ID NO:123 (cynomolgus monkey, UniProt Q5RDH6 122-760 (Pongo abelii entry))
T1 construct: also called cynomolgus TfR1
T1 chain: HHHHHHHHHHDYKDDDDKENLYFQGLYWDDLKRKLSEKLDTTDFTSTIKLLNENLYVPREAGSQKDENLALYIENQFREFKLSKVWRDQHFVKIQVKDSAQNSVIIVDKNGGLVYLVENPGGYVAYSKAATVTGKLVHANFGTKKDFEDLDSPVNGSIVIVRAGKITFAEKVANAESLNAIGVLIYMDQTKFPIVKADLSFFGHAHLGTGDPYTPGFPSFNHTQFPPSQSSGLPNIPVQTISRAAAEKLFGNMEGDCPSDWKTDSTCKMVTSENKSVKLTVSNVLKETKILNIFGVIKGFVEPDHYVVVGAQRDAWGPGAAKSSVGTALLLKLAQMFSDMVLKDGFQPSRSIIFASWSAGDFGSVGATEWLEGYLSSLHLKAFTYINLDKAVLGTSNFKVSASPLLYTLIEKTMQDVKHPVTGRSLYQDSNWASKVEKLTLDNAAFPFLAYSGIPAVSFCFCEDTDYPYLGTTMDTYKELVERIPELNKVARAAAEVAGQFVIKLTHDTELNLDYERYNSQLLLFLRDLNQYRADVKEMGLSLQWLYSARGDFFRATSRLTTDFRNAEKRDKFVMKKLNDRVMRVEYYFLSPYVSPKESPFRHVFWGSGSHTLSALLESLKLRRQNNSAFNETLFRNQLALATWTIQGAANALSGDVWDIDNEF
METHOD_SUMMARY: SPR, FLAG-captured TfR1, scFv injected, 1:1 fit
koff reference
VALUE_KIND: koff (s⁻¹)

[
  {
    "BINDER": "h26D3 HC6 DS V11R T120K (scFv, also called h26D3 DS V11R T120K) scFv: HHHHHHGGGGSGGGGSGGGGSGGGGSDIQMTQSPSSVSASVGDRVTITCKSSQSLLYSTNQKNYLAWYQQKPGKAPKLLIYWASTRESGVPSRFSGSGSGTDFTLTISSLQPEDFATYYCQQYFIYPRTFGCGTKVEIKGGGGSGGGGSGGGGSGGGGSEVQLVQSGAERKKPGSSVKVSCKASGYIFTDYNMDWVRQAPGQCLEWIGDINPDADTTSYNEKFKGRATLTVDKSTSTAYMELSSLRSEDTAVYYCARGGYSGSSYYHPMDYWGQGTLVKVSS",
    "RECORDED_MEASUREMENT": 0.0124
  },
  {
    "BINDER": "h26D3 HC6 DS T91A (scFv, also called h26D3 DS T91A) scFv: HHHHHHGGGGSGGGGSGGGGSGGGGSDIQMTQSPSSVSASVGDRVTITCKSSQSLLYSTNQKNYLAWYQQKPGKAPKLLIYWASTRESGVPSRFSGSGSGTDFTLTISSLQPEDFATYYCQQYFIYPRTFGCGTKVEIKGGGGSGGGGSGGGGSGGGGSEVQLVQSGAEVKKPGSSVKVSCKASGYIFTDYNMDWVRQAPGQCLEWIGDINPDADTTSYNEKFKGRATLTVDKSTSTAYMELSSLRSEDAAVYYCARGGYSGSSYYHPMDYWGQGTLVTVSS",
    "RECORDED_MEASUREMENT": 0.0111
  },
  {
    "BINDER": "h26D3 HC6 DS T91S T120K (scFv, also called h26D3 DS T91S T120K) scFv: HHHHHHGGGGSGGGGSGGGGSGGGGSDIQMTQSPSSVSASVGDRVTITCKSSQSLLYSTNQKNYLAWYQQKPGKAPKLLIYWASTRESGVPSRFSGSGSGTDFTLTISSLQPEDFATYYCQQYFIYPRTFGCGTKVEIKGGGGSGGGGSGGGGSGGGGSEVQLVQSGAEVKKPGSSVKVSCKASGYIFTDYNMDWVRQAPGQCLEWIGDINPDADTTSYNEKFKGRATLTVDKSTSTAYMELSSLRSEDSAVYYCARGGYSGSSYYHPMDYWGQGTLVKVSS",
    "RECORDED_MEASUREMENT": 0.0115
  },
  {
    "BINDER": "h26D3 HC6 DS L118S (scFv, also called h26D3 DS L118S) scFv: HHHHHHGGGGSGGGGSGGGGSGGGGSDIQMTQSPSSVSASVGDRVTITCKSSQSLLYSTNQKNYLAWYQQKPGKAPKLLIYWASTRESGVPSRFSGSGSGTDFTLTISSLQPEDFATYYCQQYFIYPRTFGCGTKVEIKGGGGSGGGGSGGGGSGGGGSEVQLVQSGAEVKKPGSSVKVSCKASGYIFTDYNMDWVRQAPGQCLEWIGDINPDADTTSYNEKFKGRATLTVDKSTSTAYMELSSLRSEDTAVYYCARGGYSGSSYYHPMDYWGQGTSVTVSS",
    "RECORDED_MEASUREMENT": 0.0107
  },
  {
    "BINDER": "h26D3 HC6 DS T91S S122K (scFv, also called h26D3 DS T91S S122K) scFv: HHHHHHGGGGSGGGGSGGGGSGGGGSDIQMTQSPSSVSASVGDRVTITCKSSQSLLYSTNQKNYLAWYQQKPGKAPKLLIYWASTRESGVPSRFSGSGSGTDFTLTISSLQPEDFATYYCQQYFIYPRTFGCGTKVEIKGGGGSGGGGSGGGGSGGGGSEVQLVQSGAEVKKPGSSVKVSCKASGYIFTDYNMDWVRQAPGQCLEWIGDINPDADTTSYNEKFKGRATLTVDKSTSTAYMELSSLRSEDSAVYYCARGGYSGSSYYHPMDYWGQGTLVTVKS",
    "RECORDED_MEASUREMENT": 0.0108
  },
  {
    "BINDER": "h26D3 HC6 DS V11R T91A (scFv, also called h26D3 DS V11R T91A) scFv: HHHHHHGGGGSGGGGSGGGGSGGGGSDIQMTQSPSSVSASVGDRVTITCKSSQSLLYSTNQKNYLAWYQQKPGKAPKLLIYWASTRESGVPSRFSGSGSGTDFTLTISSLQPEDFATYYCQQYFIYPRTFGCGTKVEIKGGGGSGGGGSGGGGSGGGGSEVQLVQSGAERKKPGSSVKVSCKASGYIFTDYNMDWVRQAPGQCLEWIGDINPDADTTSYNEKFKGRATLTVDKSTSTAYMELSSLRSEDAAVYYCARGGYSGSSYYHPMDYWGQGTLVTVSS",
    "RECORDED_MEASUREMENT": 0.012
  },
  {
    "BINDER": "h26D3 HC6 DS S16E L118S (scFv, also called h26D3 DS S16E L118S) scFv: HHHHHHGGGGSGGGGSGGGGSGGGGSDIQMTQSPSSVSASVGDRVTITCKSSQSLLYSTNQKNYLAWYQQKPGKAPKLLIYWASTRESGVPSRFSGSGSGTDFTLTISSLQPEDFATYYCQQYFIYPRTFGCGTKVEIKGGGGSGGGGSGGGGSGGGGSEVQLVQSGAEVKKPGESVKVSCKASGYIFTDYNMDWVRQAPGQCLEWIGDINPDADTTSYNEKFKGRATLTVDKSTSTAYMELSSLRSEDTAVYYCARGGYSGSSYYHPMDYWGQGTSVTVSS",
    "RECORDED_MEASUREMENT": 0.0109
  }
]
